minimal effective dose for assorted compounds
Tested on: Male ICR mice
measurement_description: Novel Object Recognition Test (NORT), MK-801 induced amnesia
Assay type: in vivo
settings: Mus musculus; po; dose at which the relative RI is given; doses 0.03˜3 mg/kg; read-out: NORT MED
measured_property: minimal effective dose

1) O=C(N[C@H]1CN2CCC1CC2)c1ccc(=O)n(-c2ccc(Cl)cc2Cl)c1 | 1 mg/kg
2) Cc1ccc(-n2cc(C(=O)NC3CN4CCC3CC4)ccc2=O)c(Cl)c1 (stereo not shown) | 1 mg/kg
3) O=C(NC1CN2CCC1CC2)c1ccc(=O)n(-c2ccc(Cl)cc2-c2nccs2)c1 (stereo not shown) | 0.3 mg/kg
4) Cc1ccc(-c2ccc(-n3cc(C(=O)NC4CN5CCC4CC5)ccc3=O)c(Cl)c2)s1 (stereo not shown) | 3 mg/kg
5) O=C(NC1CN2CCC1CC2)c1ccc(=O)n(-c2ccccc2-c2nccs2)c1 (stereo not shown) | 3 mg/kg
6) COc1ccc(-n2cc(C(=O)NC3CN4CCC3CC4)ccc2=O)c(SC)c1 (stereo not shown) | 0.3 mg/kg
7) O=C(N[C@@H]1CN2CCC1CC2)c1ccc(=O)n(-c2ccc(Cl)cc2Cl)c1 | 1 mg/kg
8) CSc1cc(C)ccc1-n1cc(C(=O)NC2CN3CCC2CC3)ccc1=O (stereo not shown) | 0.03 mg/kg
9) O=C(NC1CN2CCC1CC2)c1ccc(=O)n(-c2ccc(Cl)cc2Cl)c1 (stereo not shown) | 3 mg/kg
10) CSc1cc(Cl)ccc1-n1cc(C(=O)NC2CN3CCC2CC3)ccc1=O (stereo not shown) | 0.3 mg/kg

* * *

target_or_system: human α7 nAChR (Homo sapiens)
measurement_description: cell-based
settings: EC50 of human α7nAChR(nM), HEK293T/17 cells transfected with human α7 nAChR; PNU-120596 added; relative to epibatidine 1 μM positive control
measured_property: EC50

1) Cc1ccc(-c2ccc(-n3cc(C(=O)NC4CN5CCC4CC5)ccc3=O)cc2)cc1 (stereo not drawn) | 100 to 500 nM
2) Cc1ccc(-n2cc(C(=O)NC3CN4CCC3CC4)ccc2=O)c(Cl)c1 (stereo not drawn) [Example 33] | 100 to 500 nM
3) CCCc1ccc(-n2cc(C(=O)NC3CN4CCC3CC4)ccc2=O)c(SC)c1 (stereo not drawn) | < 100 nM
4) CSc1ccccc1-n1cc(C(=O)N[C@H]2CN3CCC2CC3)ccc1=O | < 100 nM
5) O=C(NC1CN2CCC1CC2)c1ccc(=O)n(-c2ccccc2Oc2ccccc2)c1 (stereo not drawn) | 100 to 500 nM
6) Cc1ccc(-c2ccccc2-n2cc(C(=O)NC3CN4CCC3CC4)ccc2=O)s1 (stereo not drawn) | 100 to 500 nM
7) CSc1ccc(C(F)(F)F)cc1-n1cc(C(=O)NC2CN3CCC2CC3)ccc1=O (stereo not drawn) | 500 to 1000 nM
8) Cc1ccc(Oc2ccc(-n3cc(C(=O)NC4CN5CCC4CC5)ccc3=O)cc2)cc1 (stereo not drawn) | 100 to 500 nM
9) CCSc1ccccc1-n1cc(C(=O)NC2CN3CCC2CC3)ccc1=O (stereo not drawn) | < 100 nM
10) CSc1cc(Cl)ccc1-n1cc(C(=O)NC2CN3CCC2CC3)ccc1=O (stereo not drawn) | < 100 nM
11) CSc1cc(Cl)ccc1-n1cc(C(=O)N[C@H]2CN3CCC2CC3)ccc1=O | < 100 nM
12) O=C(N[C@H]1CN2CCC1CC2)c1ccc(=O)n(-c2ccc(Cl)cc2Cl)c1 | 100 to 500 nM
13) COc1ccc(Cl)cc1-n1cc(C(=O)NC2CN3CCC2CC3)ccc1=O (stereo not drawn) | 500 to 1000 nM
14) CCSc1cc(Cl)ccc1-n1cc(C(=O)NC2CN3CCC2CC3)ccc1=O (stereo not drawn) | < 100 nM
15) CN(C)c1ccc(-n2cc(C(=O)NC3CN4CCC3CC4)ccc2=O)cc1 (stereo not drawn) | 500 to 1000 nM
16) O=C(N[C@@H]1CN2CCC1CC2)c1ccc(=O)n(-c2ccc(Cl)cc2Cl)c1 | > 1000 nM
17) O=C(NC1CN2CCC1CC2)c1ccc(=O)n(-c2ccccc2)c1 (stereo not drawn) | > 1000 nM
18) O=C(N[C@@H]1CN2CCC1CC2)c1ccc(=O)n(-c2ccc(Cl)cc2)c1 | > 1000 nM

* * *

target_or_system: UniProt P36544
measurement_description: cell-based
settings: EC50 of human α7nAChR(nM), HEK293T/17 cells transfected with human α7 nAChR; PNU-120596 added; relative to epibatidine 1 μM positive control
// reported EC50 per item
measured_property: EC50

1) O=C(NC1CN2CCC1CC2)c1ccc(=O)n(-c2ccc(OC(F)(F)F)cc2Cl)c1 (stereo not drawn) | 100 to 500 nM
2) CSc1ccccc1-n1cc(C(=O)N[C@@H]2CN3CCC2CC3)ccc1=O | 100 to 500 nM
3) CSc1ccccc1-n1cc(C(=O)NC2CN3CCC2CC3)ccc1=O (stereo not drawn) | < 100 nM
4) O=C(NC1CN2CCC1CC2)c1ccc(=O)n(-c2ccc(Oc3ccc(Cl)cc3)cc2)c1 (stereo not drawn) | 100 to 500 nM
5) O=C(NC1CN2CCC1CC2)c1ccc(=O)n(-c2ccccc2Sc2ccccc2)c1 (stereo not drawn) | < 100 nM
6) O=C(NC1CN2CCC1CC2)c1ccc(=O)n(-c2ccc(Cl)cc2-c2nccs2)c1 (stereo not drawn) | 500 to 1000 nM
7) O=C(NC1CN2CCC1CC2)c1ccc(=O)n(-c2ccccc2-c2nccs2)c1 (stereo not drawn) | 100 to 500 nM
8) Cc1ccc(-c2ccc(-n3cc(C(=O)NC4CN5CCC4CC5)ccc3=O)c(Cl)c2)s1 (stereo not drawn) | 100 to 500 nM
9) O=C(NC1CN2CCC1CC2)c1ccc(=O)n(-c2ccc(Cl)cc2Cl)c1 (stereo not drawn) | 500 to 1000 nM
10) CSc1cc(C)ccc1-n1cc(C(=O)N[C@@H]2CN3CCC2CC3)ccc1=O | 100 to 500 nM
11) CSc1cc(C)ccc1-n1cc(C(=O)NC2CN3CCC2CC3)ccc1=O (stereo not drawn) | < 100 nM
12) COc1ccc(-n2cc(C(=O)NC3CN4CCC3CC4)ccc2=O)c(SC)c1 (stereo not drawn) | < 100 nM
13) O=C(NC1CN2CCC1CC2)c1ccc(=O)n(-c2ccccc2-c2cccs2)c1 (stereo not drawn) | 100 to 500 nM
14) CCc1ccc(-n2cc(C(=O)NC3CN4CCC3CC4)ccc2=O)cc1 (stereo not drawn) | 500 to 1000 nM
15) CCSc1cc(OC)ccc1-n1cc(C(=O)NC2CN3CCC2CC3)ccc1=O (stereo not drawn) | < 100 nM
16) Cc1cnc(-c2ccccc2-n2cc(C(=O)NC3CN4CCC3CC4)ccc2=O)s1 (stereo not drawn) | 500 to 1000 nM
17) CSc1cc(Cl)ccc1-n1cc(C(=O)N[C@@H]2CN3CCC2CC3)ccc1=O | 100 to 500 nM
18) O=C(NC1CN2CCC1CC2)c1ccc(=O)n(-c2ccc(Cl)cc2F)c1 (stereo not drawn) | 100 to 500 nM

* * *

Here the recorded EC50 is given for each entry.
target_or_system: human α7 nAChR (Homo sapiens, UniProt P36544)
Sequence (P36544 23-502): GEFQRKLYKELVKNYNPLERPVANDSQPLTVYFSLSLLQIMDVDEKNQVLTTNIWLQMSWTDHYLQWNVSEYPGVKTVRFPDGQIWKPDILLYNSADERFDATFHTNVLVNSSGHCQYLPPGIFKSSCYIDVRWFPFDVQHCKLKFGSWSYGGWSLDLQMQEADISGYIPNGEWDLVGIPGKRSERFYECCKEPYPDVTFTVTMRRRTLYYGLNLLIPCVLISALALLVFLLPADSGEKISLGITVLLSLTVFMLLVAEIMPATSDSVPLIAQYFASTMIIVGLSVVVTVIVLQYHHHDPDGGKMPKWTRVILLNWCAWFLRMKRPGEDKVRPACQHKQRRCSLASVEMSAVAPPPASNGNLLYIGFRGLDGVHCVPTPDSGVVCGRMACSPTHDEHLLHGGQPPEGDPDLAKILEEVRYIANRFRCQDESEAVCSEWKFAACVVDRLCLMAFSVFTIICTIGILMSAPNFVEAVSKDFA
measurement_description: cell-based
settings: EC50 of human α7nAChR(nM), HEK293T/17 cells transfected with human α7 nAChR; PNU-120596 added; relative to epibatidine 1 μM positive control
measured_property: EC50

1. O=C(NC1CN2CCC1CC2)c1ccc(=O)n(-c2ccc(C3CCCCC3)cc2)c1 (stereo not drawn) | 500 to 1000 nM
2. O=C(NC1CN2CCC1CC2)c1ccc(=O)n(-c2ccccc2Cl)c1 (stereo not drawn) | < 100 nM
3. O=C(NC1CN2CCC1CC2)c1ccc(=O)n(-c2ccc(Oc3ccccc3)cc2)c1 (stereo not drawn) | 500 to 1000 nM
4. O=C(NC1CN2CCC1CC2)c1ccc(=O)n(-c2cc(Cl)c(Cl)cc2Cl)c1 (stereo not drawn) | 500 to 1000 nM
5. O=C(NC1CN2CCC1CC2)c1ccc(=O)n(-c2ccc(F)cc2)c1 (stereo not drawn) | 500 to 1000 nM
6. CSc1cc(C2CCCCC2)ccc1-n1cc(C(=O)NC2CN3CCC2CC3)ccc1=O (stereo not drawn) | 100 to 500 nM
7. COc1ccc(-n2cc(C(=O)NC3CN4CCC3CC4)ccc2=O)c(OC)c1 (stereo not drawn) | 100 to 500 nM
8. CC(C)Sc1ccccc1-n1cc(C(=O)NC2CN3CCC2CC3)ccc1=O (stereo not drawn) | 100 to 500 nM
9. Cc1ccccc1-n1cc(C(=O)NC2CN3CCC2CC3)ccc1=O (stereo not drawn) | > 1000 nM

* * *

target_or_system: UniProtKB P36544
measurement_description: cell-based
settings: EC50 of human α7nAChR(nM), HEK293T/17 cells transfected with human α7 nAChR; PNU-120596 added; relative to epibatidine 1 μM positive control
EC50 values for the compounds below.
measured_property: EC50

1) O=C(NC1CN2CCC1CC2)c1ccc(=O)n(-c2ccccc2-c2nc3ccccc3s2)c1 (stereo not drawn) | < 100 nM
2) O=C(NC1CN2CCC1CC2)c1ccc(=O)n(-c2ccc(-c3ccc(Cl)cc3)cc2)c1 (stereo not drawn) | 500 to 1000 nM
3) O=C(NC1CN2CCC1CC2)c1ccc(=O)n(-c2cccc(Cl)c2Cl)c1 (stereo not drawn) | 100 to 500 nM
4) CS(=O)(=O)c1ccc(-n2cc(C(=O)NC3CN4CCC3CC4)ccc2=O)cc1 (stereo not drawn) | 100 to 500 nM
5) O=C(NC1CN2CCC1CC2)c1ccc(=O)n(-c2cccc3ccccc23)c1 (stereo not drawn) | 100 to 500 nM
6) O=C(NC1CN2CCC1CC2)c1ccc(=O)n(-c2ccc(Cl)cc2)c1 (stereo not drawn) | > 1000 nM
7) COc1ccccc1-n1cc(C(=O)NC2CN3CCC2CC3)ccc1=O (stereo not drawn) | 500 to 1000 nM
8) O=C(NC1CN2CCC1CC2)c1ccc(=O)n(-c2ccccc2OCc2ccccc2)c1 (stereo not drawn) | > 1000 nM
9) CSc1cc(C(C)C)ccc1-n1cc(C(=O)NC2CN3CCC2CC3)ccc1=O (stereo not drawn) | < 100 nM
